meta.source: the NIST ThermoML archive (doi:10.1021/je7006549)

- Setup Conditions: 303.15 K; 101 kPa; Liquid
In this section, each of the compounds is paired with its reported mass density.
State the answer as a number, implicitly in kg/m3.

If you can, please state the reported mass density value of CCc1ccccc1 . 858

Likewise for Cc1ccccc1C ? 872.1

Okay, and c1ccccc1 ? 868

Now the same for Cc1ccccc1 857.5

What do you get for Cc1cccc(C)c1 ? 855.6

Could you now consider this next compound?
Item Cc1ccc(C)cc1 has what recorded mass density? 852

----------
- Protocol Notes: mn = molality of the nth substance listed, in mol/kg
- Setup Conditions: 318.15 K; 101 kPa; Liquid; m2 = 0
# viscosity >= 0.5 mPa·s gives yes (1), anything below gives no (0)

Please check the record Cc1ccccc1C [1,2-dimethylbenzene] + CC1=CC(=O)c2ccccc2C1=O and state if its viscosity is at or above 0.5 mPa·s. yes (1)

Next:
Form field: viscosity at least 0.5 mPa·s? Entry: c1ccccc1 [benzene] + CC1=CC(=O)c2ccccc2C1=O no (0)

Param item: Cc1cccc(C)c1 [1,3-dimethylbenzene] + CC1=CC(=O)c2ccccc2C1=O no (0)

// next record Cc1ccccc1 [toluene] + CC1=CC(=O)c2ccccc2C1=O no (0)

----------
- Protocol Notes: mn = molality of the nth substance listed, in mol/kg
- Setup Conditions: 313.15 K; 101 kPa; Liquid; m2 = 0
Field: label. Allowed values: YES (viscosity < 0.5 mPa·s) or NO (viscosity >= 0.5 mPa·s).

Some solved entries appear below for comparison.
is_below(viscosity, 0.5 mPa·s) for CCc1ccccc1 [ethylbenzene] + CC1=CC(=O)c2ccccc2C1=O ? NO

Continue with Cc1ccccc1 [toluene] + CC1=CC(=O)c2ccccc2C1=O YES

What about this compound? Cc1ccc(C)cc1 [1,4-dimethylbenzene] + CC1=CC(=O)c2ccccc2C1=O NO

Turning now to a further record.
Lab note: viscosity threshold 0.5 mPa·s. Does this compound come in strictly under it? Cc1ccccc1C [1,2-dimethylbenzene] + CC1=CC(=O)c2ccccc2C1=O NO

----------
- Setup Conditions: 328.15 K; 101 kPa; Liquid
Measurement Name: mass density (kg/m3)
State the answer as a number, implicitly in kg/m3.

Here are 5 molecules together with their reported answers.
Can you look up the measured mass density of Cc1ccccc1 for me? 834

Input c1ccccc1 840.7

Continue with CCc1ccccc1 835.9

Queued: Cc1cccc(C)c1 833.7

Now consider Cc1ccc(C)cc1 and answer again. 829.9

Let's switch to this molecule now.
Name the recorded mass density for Cc1ccccc1C . 851.2

----------
Examples of compounds with documented viscosity follow.
- Protocol Notes: mn = molality of the nth substance listed, in mol/kg
- Setup Conditions: 328.15 K; 101 kPa; Liquid; m2 = 0
Please reply with the bare figure in mPa·s and do not write the unit itself.

Given the compound Cc1ccc(C)cc1 [1,4-dimethylbenzene] + CC1=CC(=O)c2ccccc2C1=O , what is its reported viscosity? 0.4439

New cases:
I'd like to know its viscosity. The compound in question is c1ccccc1 [benzene] + CC1=CC(=O)c2ccccc2C1=O 0.4145

Input CCc1ccccc1 [ethylbenzene] + CC1=CC(=O)c2ccccc2C1=O 0.4566

Now the same for Cc1ccccc1 [toluene] + CC1=CC(=O)c2ccccc2C1=O 0.4082

Another compound: Cc1ccccc1C [1,2-dimethylbenzene] + CC1=CC(=O)c2ccccc2C1=O 0.5433

Next compound up: Cc1cccc(C)c1 [1,3-dimethylbenzene] + CC1=CC(=O)c2ccccc2C1=O 0.435

----------
mass density values for the molecules below.
- Setup Conditions: 313.15 K; 101 kPa; Liquid
Field format: number, assumed kg/m3, no unit text.

Some solved cases for reference:
What value of mass density has been recorded for this entry: CCc1ccccc1 849.5

Can you check Cc1ccc(C)cc1 next? 843.2

Entry Cc1ccccc1 please 847.9

Queued: Cc1cccc(C)c1 846.9

Now this one: Cc1ccccc1C 864

---
Can you share its mass density? I mean this molecule: c1ccccc1 857

----------
- Protocol Notes: mn = molality of the nth substance listed, in mol/kg
- Setup Conditions: 303.15 K; 101 kPa; Liquid; m2 = 0
± gives the expanded uncertainty stated by the source.
Entries and their viscosity values follow.
Number first, unit second: that is the form wanted.

Answered cases to consult:
// lookup viscosity for Cc1cccc(C)c1 [1,3-dimethylbenzene] + CC1=CC(=O)c2ccccc2C1=O 0.549 ± 0.0092 mPa·s

And for c1ccccc1 [benzene] + CC1=CC(=O)c2ccccc2C1=O ? 0.564 ± 0.0093 mPa·s

Here is the next molecule: Cc1ccccc1C [1,2-dimethylbenzene] + CC1=CC(=O)c2ccccc2C1=O 0.7404 ± 0.011 mPa·s

Okay, and Cc1ccccc1 [toluene] + CC1=CC(=O)c2ccccc2C1=O ? 0.5253 ± 0.009 mPa·s

Moving on to the next molecule: Cc1ccc(C)cc1 [1,4-dimethylbenzene] + CC1=CC(=O)c2ccccc2C1=O 0.5726 ± 0.0093 mPa·s

As a next step, examine the molecule that follows.
Quick check: viscosity of CCc1ccccc1 [ethylbenzene] + CC1=CC(=O)c2ccccc2C1=O ? 0.5986 ± 0.0095 mPa·s
